TARGET OF ASSAY: EGFR kinase (Homo sapiens, UniProt P00533)
Sequence (P00533 25-1210): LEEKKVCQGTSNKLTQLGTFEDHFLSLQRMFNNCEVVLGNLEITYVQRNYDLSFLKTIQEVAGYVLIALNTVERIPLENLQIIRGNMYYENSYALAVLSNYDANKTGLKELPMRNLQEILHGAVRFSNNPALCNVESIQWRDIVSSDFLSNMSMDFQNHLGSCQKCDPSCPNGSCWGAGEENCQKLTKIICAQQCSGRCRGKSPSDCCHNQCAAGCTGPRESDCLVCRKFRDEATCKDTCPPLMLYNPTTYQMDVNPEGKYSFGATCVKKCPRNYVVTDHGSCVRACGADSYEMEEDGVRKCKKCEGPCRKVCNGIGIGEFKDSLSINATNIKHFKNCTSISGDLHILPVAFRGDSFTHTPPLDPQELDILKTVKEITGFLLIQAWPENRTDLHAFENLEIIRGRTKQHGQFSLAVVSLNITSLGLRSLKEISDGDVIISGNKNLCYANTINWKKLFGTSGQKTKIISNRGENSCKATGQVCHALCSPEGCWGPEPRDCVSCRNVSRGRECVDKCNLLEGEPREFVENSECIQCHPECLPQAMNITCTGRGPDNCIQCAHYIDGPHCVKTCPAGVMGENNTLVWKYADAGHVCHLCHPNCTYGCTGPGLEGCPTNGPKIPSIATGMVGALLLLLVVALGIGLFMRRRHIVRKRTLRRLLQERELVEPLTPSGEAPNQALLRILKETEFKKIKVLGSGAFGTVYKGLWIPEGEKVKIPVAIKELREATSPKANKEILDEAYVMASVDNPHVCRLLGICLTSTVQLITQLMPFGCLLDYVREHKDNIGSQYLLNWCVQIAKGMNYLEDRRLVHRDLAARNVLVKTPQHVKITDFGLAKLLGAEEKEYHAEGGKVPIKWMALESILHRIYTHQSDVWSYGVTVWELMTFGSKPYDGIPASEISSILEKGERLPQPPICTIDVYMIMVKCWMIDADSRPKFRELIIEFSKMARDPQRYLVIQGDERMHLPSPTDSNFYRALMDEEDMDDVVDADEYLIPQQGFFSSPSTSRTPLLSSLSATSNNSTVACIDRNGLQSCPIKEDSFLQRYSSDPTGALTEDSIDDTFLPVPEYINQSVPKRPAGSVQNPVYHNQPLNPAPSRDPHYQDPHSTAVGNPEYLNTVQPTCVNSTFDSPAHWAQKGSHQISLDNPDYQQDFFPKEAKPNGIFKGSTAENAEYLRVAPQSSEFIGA
MEASUREMENT PROTOCOL: ELISA-based EGFR kinase inhibition assay
TEST CONTEXT: sample at 0.31uM; duplicate wells; standards in ng/ml; cont 134.9
Each entry below carries its reported Conc. (Average), ELISA read-out.

The cases that follow already have their Conc. (Average), ELISA read-out on record.
1) CCOC(=O)C1=C(C)OC(N)=C(C#N)C1c1ccc(OC2CCCC2)cc1 (stereo not shown) = 92.02
2) Cc1ccc(C2=NN(c3ccccc3)C(c3ccc(OC4CCCC4)cc3)C2)cc1 (stereo not shown) = 99.48
3) CN1CCC(=O)C(=Cc2ccc(OC3CCCC3)cc2)C1 = 110.4

Endpoint output: Conc. (Average), ELISA read-out of `CCN1CCC(=O)C(=Cc2ccc(OC3CCCC3)cc2)C1` . Value? 68.86
